test: Acute toxicity, oral, Compound No. 6
Format: in vivo, rat (male SD rats, 5 weeks old)
conditionSummary: rat, in vivo, male SD rats (5 weeks old)
quantityName: LD50

Give a short answer stating reported LD50 for N#CNC(=NCCc1ccccc1Cl)c1cncc(N)c1 [Compound No. 6] .
> 50 mg/kg

###

test: Acute toxicity, oral, Compound No. 18
conditionSummary: rat, in vivo, male SD rats (5 weeks old)
quantityName: LD50

Give a short answer stating reported LD50 for N#CNC(=NCCO[N+](=O)[O-])c1cncc(N)c1 [Compound No. 18] .
~600 mg/kg
